- Test Details: qHTS Screen of the MIPE 4.0 Collection Against Ewings Sarcoma (TC32) (AID 1259256); further: nearly all actives have a fitted effect of over 45% in size
- Study Conditions: TC32 Ewing sarcoma viability, CellTiter-Glo, 48 h; series mostly up to 45.8 µM
Records with an inconclusive call do not appear. The source made the active and inactive calls. The call rests on the fitted dose curve; in most records, active means well fitted inhibition curve with a large enough effect; inconclusive means small, poorly fitted or top-dose-only effect; inactive means no such curve, though single readings can be large or run the other way.
Classes used: yes for active, no for inactive

# Compound, Discrete Label
measured = [
    ("Cc1ncc(-c2ccnc(Nc3ccc(S(C)(=O)=O)cc3)n2)n1C(C)C", "yes"),
    ("CCCCCCCCCCCC(CC1OC(=O)C1CCCCCC)OC(=O)C(CC(C)C)NC=O (stereo not given)", "no"),
    ("CN1C(C(=O)Nc2ccccn2)=C(O)c2sc(Cl)cc2S1(=O)=O", "yes"),
    ("C[C@H]1[C@@H](OC(=O)CCC(=O)O)O[C@@H]2O[C@@]3(C)CC[C@@H]4[C@H](C)CC[C@@H]1[C@@]24OO3", "yes"),
    ("COc1cc([C@@H]2c3cc4c(cc3[C@@H](O[C@@H]3O[C@@H]5CO[C@@H](c6cccs6)O[C@@H]5[C@H](O)[C@@H]3O)[C@H]3COC(=O)[C@H]23)OCO4)cc(OC)c1O", "no"),
]

----------
- Test Details: qHTS of pediatric cancer cell lines to identify multiple opportunities for drug repurposing: Primary screen for TC32 cells (AID 1347089); further: nearly all actives have a fitted effect of over 60% in size
- Study Conditions: TC32 Ewing sarcoma viability, CellTiter-Glo luminescence, 48 h; series mostly up to 45.8 µM
Results filed as inconclusive are left out. The source made the active and inactive calls. Calls come from the whole dose curve; as a rule, active = well fitted cell-killing curve with a large enough effect; inconclusive = small, poorly fitted or top-dose-only effect; inactive = flat fitted curve, though single readings scatter.
Outcome codes: YES = active, NO = inactive

# Compound, Discrete Label
data = [
    ("O=C(O)CCCCC(CCSCc1ccccc1)SCc1ccccc1 (centres undefined)", "NO"),
    ("C#CCC(Cc1cnc2nc(N)nc(N)c2n1)c1ccc(C(=O)N[C@@H](CCC(=O)O)C(=O)O)cc1 (some centres undefined)", "YES"),
    ("CC(C)(O)Cn1c(NC(=O)c2ccc(-c3cn[nH]c3)s2)nc2cc(CN3CCOCC3)ccc21", "YES"),
    ("N#CC(=C(O)c1ccc(Cl)cc1Cl)c1nc2cc(Cl)ccc2c(=O)[nH]1", "NO"),
]

----------
- Test Details: Quantitative High-Throughput drug screen in 47 multiple myeloma cell lines against the NCATS MIPE library collection: KMS11_JCRBsus cell viability assay (AID 1919873); further: nearly all actives have a fitted effect of over 50% in size
- Study Conditions: KMS11 myeloma viability, CellTiter-Glo ATP luminescence, 48 h; series mostly up to 45.8 µM
Inconclusive results are not listed. The source made the active and inactive calls. The call rests on the fitted dose curve; in most records, active means well fitted cell-killing curve with a large enough effect; inconclusive means small, poorly fitted or top-dose-only effect, or effect the other way; inactive means no such curve, though single readings can be large or run the other way.
Classes used: label 1 for active, label 0 for inactive

# Compound Smiles, Discrete Label
data = [
    ("N#Cc1c(NC(=O)c2cccc3ccccc23)sc2c1CCCC2", "label 1"),
    ("Cn1cnc2c(F)c(Nc3ccc(Br)cc3F)c(C(=O)NOCCO)cc21", "label 0"),
    ("OCCN1C[C@H](O)[C@@H](O)[C@H](O)[C@@H]1CO", "label 0"),
]

----------
- System: MCC-26
- Test Details: qHTS assay to identify novel small-molecules to repurpose for Merkel cell carcinoma treatment (AID 1296009); further: nearly all actives have a fitted effect of over 60% in size
- Study Conditions: MCC and control cell lines, CellTiter-Glo viability, 72 h; series mostly up to 46 µM
Inconclusive results are not listed. The source made the active and inactive calls. The call rests on the fitted dose curve; in most records, active means well fitted inhibition curve with a large enough effect; inconclusive means small, poorly fitted or top-dose-only effect; inactive means flat fitted curve, though single readings scatter.
Labels: label 1 (active), label 0 (inactive)

# Compound, Discrete Label
records = [
    ("OCC(O)C(O)C(O)CO (centres undefined)", "label 0"),
    ("Cc1cc(O)c2c(c1)C(=O)c1cccc(O)c1C2=O", "label 0"),
    ("CON=C(C(=O)N[C@@H]1C(=O)N2C(C(=O)O)=C(Cn3ccc(=N)n3CCO)CS[C@H]12)c1csc(N)n1", "label 0"),
    ("O=C1NC(=O)C(=Cc2ccc3nccc(-c4ccncc4)c3c2)S1", "label 1"),
    ("C[C@H](NC(=O)C(C#N)=Cc1cccc(Br)n1)c1ccccc1", "label 0"),
    ("COc1cccc2c1C(=O)c1c(O)c3c(c(O)c1C2=O)C[C@@](O)(C(=O)CO)C[C@@H]3O[C@H]1C[C@H](N)[C@H](OC2CCCCO2)[C@H](C)O1 (some centres undefined)", "label 1"),
    ("Cc1ccc(O)c(C(CCN(C(C)C)C(C)C)c2ccccc2)c1 (centres undefined)", "label 0"),
    ("COc1ccnc2[nH]cc(C(=O)C(=O)N3CCN(C(=O)c4ccccc4)C[C@@H]3C)c12", "label 0"),
    ("C[C@H](NCc1ccc2c(c1)nc(NC(=O)c1ccc(-c3cn[nH]c3)s1)n2CCc1ccccc1)C(C)(C)C", "label 1"),
]

----------
- Test Details: qHTS for identification of novel therapeutic agents for treatment of microphthalmiaassociated transcription factor (MiT) renal cell carcinoma (RCC) (AID 1963991); further: potency means the concentration at half of the fitted maximal effect
- Study Conditions: TFE3-RCC UOK109 viability, CellTiter-Glo, 48 h; active = Z-AUC below -0.8 in all three lines
- Procedure: PI: Marston Linehan Ph.D. Urologic Oncology Branch, Center for Cancer Research (CCR) National Cancer Institute (NCI), National Institute of Health (NIH), Bethesda, Maryland […] 6; Detection; Luminescence; ViewLux plate reader (PerkinElmer). […] 1. Quantitative high-throughput screening (qHTS) of 1912 pharmacologically defined small molecule compounds was conducted on three TFE3-fusion cell lines bearing three different fusion partners (UOK109, UOK124, UOK145). […]
Results filed as inconclusive are left out. Active and inactive are the calls of the source.
Collected Potency values appear next to each entry.
Observable: Potency

# Compound, Result
data = [
    ("COc1cccc2c1C(=O)c1c(O)c3c(c(O)c1C2=O)C[C@@](O)(C(C)=O)C[C@H]3O[C@H]1C[C@H](N)[C@H](O)[C@H](C)O1", "0.296 µM (active)"),
    ("C#CCC(Cc1cnc2nc(N)nc(N)c2n1)c1ccc(C(=O)N[C@@H](CCC(=O)O)C(=O)O)cc1 (some centres undefined)", "0.132 µM (active)"),
    ("N#CNC(=NCCCCCCOc1ccc(Cl)cc1)Nc1ccncc1", "7.43 µM (active)"),
    ("COc1ccc(Nc2cc(-c3cnc(N)nc3)nc(N3CCOCC3)n2)cn1", "0.526 µM (active)"),
]

----------
- Test Details: qHTS of pediatric cancer cell lines to identify multiple opportunities for drug repurposing: Primary screen for SJ-GBM2 cells (AID 1347091)
- Study Conditions: SJ-GBM2 viability, CellTiter-Glo luminescence, 48 h; series mostly up to 46 µM
Records with an inconclusive call do not appear. Calls of active or inactive are those of the source. Calls follow the shape of the dose curve; as a rule, active = well fitted cell-killing curve with a large enough effect; inconclusive = small, poorly fitted or top-dose-only effect; inactive = no such curve, though single readings can be large or run the other way.
Outcomes: active, inactive

# Compound Smiles, Discrete Label
records = [
    ("OCCN1C[C@H](O)[C@@H](O)[C@H](O)[C@@H]1CO", "inactive"),
    ("Cc1cnc(Nc2ccc(CN3CCOCC3)cc2)nc1Nc1cccc(S(=O)(=O)NC(C)(C)C)c1", "active"),
    ("O=C1c2cccc(O)c2C(=O)c2c(O)cc(CO)cc21", "inactive"),
    ("FC(F)c1nc2ccccc2n1-c1nc(N2CCOCC2)nc(N2CCOCC2)n1", "active"),
    ("Nc1nc2c(c(=O)[nH]1)N(C=O)[C@H](CNc1ccc(C(=O)N[C@@H](CCC(=O)O)C(=O)O)cc1)CN2", "inactive"),
    ("CN1C(C(=O)Nc2ccccn2)=C(O)c2sc(Cl)cc2S1(=O)=O", "inactive"),
    ("CC(C)NC[C@@H](C(=O)N1CCN(c2ncnc3c2[C@H](C)C[C@H]3O)CC1)c1ccc(Cl)cc1", "active"),
    ("C[N+](C)([O-])CCNc1ccc(NCC[N+](C)(C)[O-])c2c1C(=O)c1c(O)ccc(O)c1C2=O", "inactive"),
    ("c1cc(N[C@@H]2CCNC2)nc(-c2cnc3ccc(-c4cn[nH]c4)cn23)c1", "active"),
    ("Cc1ncc(-c2ccnc(Nc3ccc(S(C)(=O)=O)cc3)n2)n1C(C)C", "active"),
    ("Oc1ccc([C@@H]2Oc3ccc(O)cc3[C@@H]3CCC[C@@H]32)cc1", "active"),
    ("Cc1ccc2nc(NCCN)c3ncc(C)n3c2c1", "active"),
    ("C=CC(=O)Nc1ccc2ncnc(Nc3ccc(OCc4cccc(F)c4)c(Cl)c3)c2c1", "active"),
    ("COc1ccc2cc([S+]([O-])Cc3ncc(C)c(OC)c3C)nc2c1", "inactive"),
    ("Cc1cc(Nc2ncc3c(n2)N(C)C(=O)N(c2cc(NC(=O)c4cccc(C(F)(F)F)c4)ccc2C)C3)n(C)n1", "active"),
]

----------
- Test Details: Quantitative High-Throughput drug screen in 47 multiple myeloma cell lines against the NCATS MIPE library collection: NCIH929_DSMZ cell viability assay (AID 1918978); further: nearly all actives have a fitted effect of over 35% in size
- Study Conditions: NCI-H929 myeloma viability, CellTiter-Glo ATP, 48 h; series mostly up to 45.8 µM
Results filed as inconclusive are left out. Activity calls are given as the source filed them. Calls follow the shape of the dose curve; as a rule, active = well fitted cell-killing curve with a large enough effect; inconclusive = small, poorly fitted or top-dose-only effect; inactive = no such curve, though single readings can be large or run the other way. Non-standard residues stand in square brackets, D forms with d. Residues, ends and D or L forms follow the SMILES beside them. *: point of attachment. Nva = CCC[C@H](N)C(=O)O; Cbz = O=C(OCc1ccccc1)*
Outcomes: active, inactive

# Compound, Discrete Label
measured = [
    ("CC(C=CC(=O)NO)=C[C@@H](C)C(=O)c1ccc(N(C)C)cc1", "active"),
    ("CC(C)(C)[N+]([O-])=Cc1ccc(S(=O)(=O)O)cc1S(=O)(=O)O", "inactive"),
    ("CC(=CC(=O)Nc1ccccc1C(=O)O)c1ccc2ccccc2c1", "active"),
    ("N#CC(=C(O)c1ccc(Cl)cc1Cl)c1nc2cc(Cl)ccc2c(=O)[nH]1", "inactive"),
    ("CN(N=O)C(=O)N[C@H]1C(O)OC(CO)[C@@H](O)[C@H]1O (some centres not stated)", "inactive"),
    ("CC(=O)[C@]1(O)Cc2c(O)c3c(c(O)c2[C@@H](O[C@H]2C[C@H](N)[C@@H](O)[C@H](C)O2)C1)C(=O)c1ccccc1C3=O", "active"),
    ("CCc1c(O)cc(O)c(C(=O)c2ccc(OCCN3CCOCC3)c(OC)c2)c1CC(=O)N(CCOC)CCOC", "active"),
    ("COc1cc2c(Nc3ccc(Cl)c(Cl)c3F)ncnc2cc1OCC1C[C@@H]2CN(C)C[C@H]2C1", "active"),
    ("COc1ccc(C(C)=O)c(O)c1", "inactive"),
    ("CCC[C@@H](C=O)NC(=O)[C@H](CC(C)C)NC(=O)[C@H](CC(C)C)NC(=O)OCc1ccccc1 (Cbz-Leu-Leu-[Nva]-aldehyde)", "active"),
    ("COC(=O)[C@@H]1[C@H]2C[C@@H]3c4[nH]c5ccccc5c4CCN3C[C@@H]2CC[C@@H]1O", "inactive"),
    ("CC(C=CC1=C(C)CCCC1(C)C)=CC=CC(C)=CC(=O)Nc1ccc(O)cc1", "active"),
]
